Listed below: Relative KD values for each entry.
- EXPERIMENTAL TARGET: P-tau peptide (wild-type P-tau peptide and its pure cis or cis-locked, and pure trans counterparts)
- ASSAY REMARKS: Biacore (SPR) with P-tau peptide

{"BINDER": "Cis-mAb HT3 (humanized) (antibody, V domains shown) VH: QVQLVQSGAEVKKPGASVKVSCKASGYTFTSYWIHWVRQRPGQGLEWIGVIDPSDSYTRYNQKFKGRVTLTVDTSASTAYMELSSLRSEDTAVYYCTTWEVDYWGQGTLVTVSS VL: DVVMTQSPLSLPVTLGQPASISCRSSQSLVHSDGNTYLHWYLQKPGQSPQLLIYKVSNRFSGVPDRFSGSGSGTDFTLKISRVEAEDVGVYFCSQSTHVPWTFGGGTKVEIK", "Relative KD": "2.79 fold of HT13"}
{"BINDER": "Cis-mAb HT15 (humanized) (antibody, V domains shown) VH: QVQLVQSGAEVKKPGASVKMSCKASGYTFTSYWIHWVKQRPGQGLEWIGVIDPSDSYTRYNQKFKGRATLTVDTSASTAYMELSSLRSEDTAVYYCTTWEVDYWGQGTLVTVSS VL: DVVMTQSPLSLPVTLGQPASISCRSSQSLVHSDGNTYLNWYLQKPGQSPQLLIYKVSNRFSGVPDRFSGSGSGTDFTLKISRVEAEDVGVYFCSQSTHVPWTFGGGTKVEIK", "Relative KD": "26.5 fold of HT13"}
{"BINDER": "Cis-mAb HT17 (humanized) (antibody, V domains shown) VH: QVQLVQSGAEVKKPGASVKVSCKASGYTFTSYWIHWVRQRPGQGLEWIGVIDPSDSYTRYNQKFKGRVTITRDTSASTAYMELSSLRSEDTAVYYCTTWEVDYWGQGTLVTVSS VL: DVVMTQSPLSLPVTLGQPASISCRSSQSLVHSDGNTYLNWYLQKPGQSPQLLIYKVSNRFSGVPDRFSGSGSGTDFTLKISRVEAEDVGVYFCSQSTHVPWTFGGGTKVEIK", "Relative KD": "3920 fold of HT13"}
{"BINDER": "Cis-mAb HT10 (humanized) (antibody, V domains shown) VH: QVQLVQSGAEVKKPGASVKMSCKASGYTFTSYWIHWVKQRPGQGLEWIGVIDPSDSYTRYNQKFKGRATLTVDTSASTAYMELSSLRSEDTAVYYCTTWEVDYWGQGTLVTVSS VL: DVVMTQSPLSLPVTLGQPASISCRSSQSLVHSDGNTYLHWYLQKPGQSPQLLIYKVSNRFSGVPDRFSGSGSGTDFTLKISRVEAEDVGVYYCSQSTHVPWTFGGGTKVEIK", "Relative KD": "1.4 fold of HT13"}
{"BINDER": "Cis-mAb HT11 (humanized) (antibody, V domains shown) VH: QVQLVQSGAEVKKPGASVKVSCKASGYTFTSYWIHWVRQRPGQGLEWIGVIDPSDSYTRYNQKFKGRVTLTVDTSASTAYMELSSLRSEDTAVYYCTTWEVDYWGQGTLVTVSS VL: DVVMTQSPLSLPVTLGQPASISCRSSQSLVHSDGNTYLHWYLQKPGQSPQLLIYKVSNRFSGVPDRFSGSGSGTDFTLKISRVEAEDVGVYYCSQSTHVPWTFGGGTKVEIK", "Relative KD": "3.17 fold of HT13"}
{"BINDER": "Cis-mAb HT2 (humanized) (antibody, V domains shown) VH: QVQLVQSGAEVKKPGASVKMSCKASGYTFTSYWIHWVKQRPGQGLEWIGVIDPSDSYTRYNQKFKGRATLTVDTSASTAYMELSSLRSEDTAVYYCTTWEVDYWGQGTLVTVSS VL: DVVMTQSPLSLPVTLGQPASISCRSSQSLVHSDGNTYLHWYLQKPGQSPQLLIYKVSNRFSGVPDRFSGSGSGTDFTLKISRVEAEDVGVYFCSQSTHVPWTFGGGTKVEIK", "Relative KD": "1.29 fold of HT13"}
{"BINDER": "Cis-mAb HT6 (humanized) (antibody, V domains shown) VH: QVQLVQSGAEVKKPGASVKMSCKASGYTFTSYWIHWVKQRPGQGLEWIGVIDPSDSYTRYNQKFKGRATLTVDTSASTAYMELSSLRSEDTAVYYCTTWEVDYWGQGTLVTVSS VL: DVVMTQSPLSLPVTLGQPASISCRSSQSLVHSDGNTYLHWYLQKPGQSPQLLIYKVSNRDSGVPDRFSGSGSGTDFTLKISRVEAEDVGVYFCSQSTHVPWTFGGGTKVEIK", "Relative KD": "5.14 fold of HT13"}
{"BINDER": "Cis-mAb HT18 (humanized) (antibody, V domains shown) VH: QVQLVQSGAEVKKPGSSVKVSCKASGYTFTSYWIHWVRQAPGQGLEWMGVIDPSDSYTRYNQKFKGRVTITRDTSMSTAYTELSSLRSEDTAVYYCTTWEVDYWGQGTLVTVSS VL: DIQMTQSPSTLSASVGDRVTITCRSSQSLVHSDGNTYLHWYQQKPGKAPKLLIYKVSNRFSGVPSRFSGSGSGTEFTLTISSLQPDDFATYYCSQSTHVPWTFGQGTKLEIK", "Relative KD": "1.52 fold of HT13"}
{"BINDER": "Cis-mAb HT7 (humanized) (antibody, V domains shown) VH: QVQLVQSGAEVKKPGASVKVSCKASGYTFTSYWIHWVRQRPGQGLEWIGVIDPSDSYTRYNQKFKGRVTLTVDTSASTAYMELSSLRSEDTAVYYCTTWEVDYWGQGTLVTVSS VL: DVVMTQSPLSLPVTLGQPASISCRSSQSLVHSDGNTYLHWYLQKPGQSPQLLIYKVSNRDSGVPDRFSGSGSGTDFTLKISRVEAEDVGVYFCSQSTHVPWTFGGGTKVEIK", "Relative KD": "8.57 fold of HT13"}
{"BINDER": "Cis-mAb HT9 (humanized) (antibody, V domains shown) VH: QVQLVQSGAELKKPGASVKMSCKASGYTFTSYWIHWVKQRPGQGLEWIGVIDPSDSYTRYNQKFKGRATLTVDTSASTAYMQLSSLTSEDSAVYYCTTWEVDYWGQGTTVTVSS VL: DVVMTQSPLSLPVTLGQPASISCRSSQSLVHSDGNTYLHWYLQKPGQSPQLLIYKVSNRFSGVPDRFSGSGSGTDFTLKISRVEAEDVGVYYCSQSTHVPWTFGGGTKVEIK", "Relative KD": "1.5 fold of HT13"}
